Data provenance: ChEMBL document CHEMBL3351975

# System: Mus musculus
# run description: Antidepressant-like activity in Swiss albino mouse assessed as decrease in immobility time at 0.5 mg/kg, ip measured for 5 mins by forced swimming test relative to control
# Type: functional
# run conditions: route intraperitoneal

[
  {
    "compound": "COc1ccc(-c2cc3cc(C4C(C#N)=C(N)OC5=C4C(=O)CC(C)(C)C5)cc(C(C)C)c3oc2=O)cc1OC (stereo unspecified)",
    "test target": "Mus musculus",
    "unit spec": "%",
    "inhibition in vivo at 0.5 mg/kg": 86.6
  },
  {
    "compound": "CCC(C)c1cc(C2C(C#N)=C(N)OC3=C2C(=O)CCC3)cc2cc(-c3cc(OC)c(OC)c(OC)c3)c(=O)oc12 (stereo unspecified)",
    "test target": "Mus musculus",
    "unit spec": "%",
    "inhibition in vivo at 0.5 mg/kg": 56.1
  },
  {
    "compound": "CCC(C)c1cc(C2C(C#N)=C(N)OC3=C2C(=O)CCC3)cc2cc(-c3ccc(OC)cc3)c(=O)oc12 (stereo unspecified)",
    "test target": "Mus musculus",
    "unit spec": "%",
    "inhibition in vivo at 0.5 mg/kg": 35
  },
  {
    "compound": "COc1ccc(-c2cc3cc(C4C(C#N)=C(N)OC5=C4C(=O)CCC5)cc(C(C)C)c3oc2=O)cc1OC (stereo unspecified)",
    "test target": "Mus musculus",
    "unit spec": "%",
    "inhibition in vivo at 0.5 mg/kg": 57.2
  },
  {
    "compound": "COc1cc(-c2cc3cc(C4C(C#N)=C(N)OC5=C4C(=O)CC(C)(C)C5)cc(C)c3oc2=O)cc(OC)c1OC (stereo unspecified)",
    "test target": "Mus musculus",
    "unit spec": "%",
    "inhibition in vivo at 0.5 mg/kg": 6.37
  },
  {
    "compound": "COc1ccc(-c2cc3cc(C4C(C#N)=C(N)OC5=C4C(=O)CCC5)cc(C(C)C)c3oc2=O)cc1 (stereo unspecified)",
    "test target": "Mus musculus",
    "unit spec": "%",
    "inhibition in vivo at 0.5 mg/kg": 69.7
  },
  {
    "compound": "CCC(C)c1cc(C2C(C#N)=C(N)OC3=C2C(=O)CC(C)(C)C3)cc2cc(-c3ccc(OC)c(OC)c3)c(=O)oc12 (stereo unspecified)",
    "test target": "Mus musculus",
    "unit spec": "%",
    "inhibition in vivo at 0.5 mg/kg": 57.4
  },
  {
    "compound": "COc1ccc(-c2cc3cc(C4C(C#N)=C(N)OC5=C4C(=O)CCC5)cc(C(C)(C)C)c3oc2=O)cc1 (stereo unspecified)",
    "test target": "Mus musculus",
    "unit spec": "%",
    "inhibition in vivo at 0.5 mg/kg": 30.6
  },
  {
    "compound": "COc1cc(-c2cc3cc(C4C(C#N)=C(N)OC5=C4C(=O)CCC5)cc(C)c3oc2=O)cc(OC)c1OC (stereo unspecified)",
    "test target": "Mus musculus",
    "unit spec": "%",
    "inhibition in vivo at 0.5 mg/kg": 5.22
  },
  {
    "compound": "COc1ccc(-c2cc3cc(C4C(C#N)=C(N)OC5=C4C(=O)CC(C)(C)C5)cc(C(C)C)c3oc2=O)cc1 (stereo unspecified)",
    "test target": "Mus musculus",
    "unit spec": "%",
    "inhibition in vivo at 0.5 mg/kg": 64.9
  },
  {
    "compound": "COc1ccc(-c2cc3cc(C4C(C#N)=C(N)OC5=C4C(=O)CC(C)(C)C5)cc(C(C)(C)C)c3oc2=O)cc1OC (stereo unspecified)",
    "test target": "Mus musculus",
    "unit spec": "%",
    "inhibition in vivo at 0.5 mg/kg": 22.5
  },
  {
    "compound": "COc1cc(-c2cc3cc(C4C(C#N)=C(N)OC5=C4C(=O)CC(C)(C)C5)cc(C(C)(C)C)c3oc2=O)cc(OC)c1OC (stereo unspecified)",
    "test target": "Mus musculus",
    "unit spec": "%",
    "inhibition in vivo at 0.5 mg/kg": 30.1
  },
  {
    "compound": "CCC(C)c1cc(C2C(C#N)=C(N)OC3=C2C(=O)CC(C)(C)C3)cc2cc(-c3ccc(OC)cc3)c(=O)oc12 (stereo unspecified)",
    "test target": "Mus musculus",
    "unit spec": "%",
    "inhibition in vivo at 0.5 mg/kg": 26.9
  },
  {
    "compound": "COc1cc(-c2cc3cc(C4C(C#N)=C(N)OC5=C4C(=O)CC(C)(C)C5)cc(C(C)C)c3oc2=O)cc(OC)c1OC (stereo unspecified)",
    "test target": "Mus musculus",
    "unit spec": "%",
    "inhibition in vivo at 0.5 mg/kg": 29.2
  },
  {
    "compound": "COc1ccc(-c2cc3cc(C4C(C#N)=C(N)OC5=C4C(=O)CC(C)(C)C5)cc(C)c3oc2=O)cc1OC (stereo unspecified)",
    "test target": "Mus musculus",
    "unit spec": "%",
    "inhibition in vivo at 0.5 mg/kg": 10.4
  },
  {
    "compound": "COc1cc(-c2cc3cc(C4C(C#N)=C(N)OC5=C4C(=O)CCC5)cc(C(C)(C)C)c3oc2=O)cc(OC)c1OC (stereo unspecified)",
    "test target": "Mus musculus",
    "unit spec": "%",
    "inhibition in vivo at 0.5 mg/kg": 5.33
  }
]

----------
# System: Mus musculus
# run description: Neurotoxicity in Swiss albino mouse assessed as effect on locomotor activity measured as horizontal activity at 0.5 mg/kg, ip measured for 2 min at 30 min intervals for 90 mins duration by open field test relative to control
# Format: toxicity, organism-based
# Design: dose 0.5 mg/kg, route intraperitoneal
# run conditions: in vivo, 1.5 h

[
  {
    "compound": "COc1ccc(-c2cc3cc(C4C(C#N)=C(N)OC5=C4C(=O)CCC5)cc(C(C)C)c3oc2=O)cc1OC (stereo unspecified)",
    "test target": "Mus musculus",
    "Activity": "Non-toxic"
  },
  {
    "compound": "COc1ccc(-c2cc3cc(C4C(C#N)=C(N)OC5=C4C(=O)CC(C)(C)C5)cc(C(C)C)c3oc2=O)cc1OC (stereo unspecified)",
    "test target": "Mus musculus",
    "Activity": "Non-toxic"
  },
  {
    "compound": "CCC(C)c1cc(C2C(C#N)=C(N)OC3=C2C(=O)CCC3)cc2cc(-c3cc(OC)c(OC)c(OC)c3)c(=O)oc12 (stereo unspecified)",
    "test target": "Mus musculus",
    "Activity": "Non-toxic"
  },
  {
    "compound": "COc1ccc(-c2cc3cc(C4C(C#N)=C(N)OC5=C4C(=O)CCC5)cc(C(C)C)c3oc2=O)cc1 (stereo unspecified)",
    "test target": "Mus musculus",
    "Activity": "Non-toxic"
  },
  {
    "compound": "CCC(C)c1cc(C2C(C#N)=C(N)OC3=C2C(=O)CC(C)(C)C3)cc2cc(-c3ccc(OC)c(OC)c3)c(=O)oc12 (stereo unspecified)",
    "test target": "Mus musculus",
    "Activity": "Non-toxic"
  },
  {
    "compound": "COc1ccc(-c2cc3cc(C4C(C#N)=C(N)OC5=C4C(=O)CC(C)(C)C5)cc(C(C)C)c3oc2=O)cc1 (stereo unspecified)",
    "test target": "Mus musculus",
    "Activity": "Non-toxic"
  }
]
